- subject-of-test: HiBiT tagged CK1α (Homo sapiens, UniProt P48729+Q96SW2)
- Sequence (P48729 whole entry): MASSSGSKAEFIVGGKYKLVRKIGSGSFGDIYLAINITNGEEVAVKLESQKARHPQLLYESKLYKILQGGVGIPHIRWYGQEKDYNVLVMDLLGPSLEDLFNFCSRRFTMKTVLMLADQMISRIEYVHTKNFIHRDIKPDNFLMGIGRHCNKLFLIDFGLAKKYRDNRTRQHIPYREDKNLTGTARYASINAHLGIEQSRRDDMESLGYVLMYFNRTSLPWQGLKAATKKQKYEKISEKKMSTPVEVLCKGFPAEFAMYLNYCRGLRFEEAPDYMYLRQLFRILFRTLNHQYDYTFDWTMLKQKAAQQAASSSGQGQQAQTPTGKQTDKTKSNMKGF
- Sequence (Q96SW2 whole entry): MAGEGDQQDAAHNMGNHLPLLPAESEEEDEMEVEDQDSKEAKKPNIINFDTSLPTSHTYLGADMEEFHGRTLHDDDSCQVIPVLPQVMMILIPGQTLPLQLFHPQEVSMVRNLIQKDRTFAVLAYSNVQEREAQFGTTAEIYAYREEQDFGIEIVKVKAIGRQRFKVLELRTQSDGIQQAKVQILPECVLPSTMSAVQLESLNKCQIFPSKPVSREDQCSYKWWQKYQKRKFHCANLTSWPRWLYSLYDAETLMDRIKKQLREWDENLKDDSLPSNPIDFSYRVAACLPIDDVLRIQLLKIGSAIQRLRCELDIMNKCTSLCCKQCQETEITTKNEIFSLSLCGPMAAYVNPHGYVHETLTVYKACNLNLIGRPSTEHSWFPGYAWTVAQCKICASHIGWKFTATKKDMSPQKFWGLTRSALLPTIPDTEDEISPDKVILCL
- Sequence (Q16531 whole entry partner): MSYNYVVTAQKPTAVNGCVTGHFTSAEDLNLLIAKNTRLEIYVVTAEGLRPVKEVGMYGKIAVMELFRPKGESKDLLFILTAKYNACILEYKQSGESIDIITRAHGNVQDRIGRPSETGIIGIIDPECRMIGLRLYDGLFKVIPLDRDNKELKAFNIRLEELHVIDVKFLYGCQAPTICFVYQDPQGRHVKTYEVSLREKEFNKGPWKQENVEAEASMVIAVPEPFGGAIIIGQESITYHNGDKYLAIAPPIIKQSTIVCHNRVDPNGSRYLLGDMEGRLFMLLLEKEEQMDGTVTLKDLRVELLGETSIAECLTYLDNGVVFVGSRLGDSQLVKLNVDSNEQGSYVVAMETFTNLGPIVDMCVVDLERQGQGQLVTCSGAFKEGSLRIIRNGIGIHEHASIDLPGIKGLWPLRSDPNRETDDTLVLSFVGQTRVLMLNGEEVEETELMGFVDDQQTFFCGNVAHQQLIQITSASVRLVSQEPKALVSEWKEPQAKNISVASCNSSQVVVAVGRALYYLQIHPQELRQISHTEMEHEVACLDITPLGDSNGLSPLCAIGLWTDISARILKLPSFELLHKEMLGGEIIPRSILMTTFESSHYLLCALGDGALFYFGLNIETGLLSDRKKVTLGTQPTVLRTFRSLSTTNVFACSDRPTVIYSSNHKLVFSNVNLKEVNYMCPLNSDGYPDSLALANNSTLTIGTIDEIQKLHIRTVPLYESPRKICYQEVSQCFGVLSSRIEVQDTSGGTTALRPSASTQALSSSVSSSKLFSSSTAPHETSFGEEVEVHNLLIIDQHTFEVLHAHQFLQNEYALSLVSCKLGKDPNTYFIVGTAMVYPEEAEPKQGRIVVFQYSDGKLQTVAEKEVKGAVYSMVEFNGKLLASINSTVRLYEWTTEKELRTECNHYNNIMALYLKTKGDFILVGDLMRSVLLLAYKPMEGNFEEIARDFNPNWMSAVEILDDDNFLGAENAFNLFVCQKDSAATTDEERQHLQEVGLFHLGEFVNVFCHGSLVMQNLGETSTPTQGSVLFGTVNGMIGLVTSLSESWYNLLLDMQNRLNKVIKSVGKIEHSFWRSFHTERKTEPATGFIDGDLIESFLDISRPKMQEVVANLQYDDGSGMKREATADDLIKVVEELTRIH
- assay: CK1α degradation assay (HiBiT assay)
- Format: cell-based
- condition-label: HT-1080 cells, 20 hours; maximum CK1α degradation
measured-endpoint: HiBiT CK1α: Dmax (%)
Give your result in % as a bare value.

O=C1CC[C@H](N2Cc3cc(C(=O)N[C@H](c4ccc(F)cc4)C4CCCC4)ccc3C2=O)C(=O)N1 (racemic) [Compound 60] ... 49
O=C1CCC(N2Cc3cc(C(=O)N[C@H](c4c(F)cccc4Cl)C4CCC4)ccc3C2=O)C(=O)N1 (stereo in doubt) ... 74
O=C1CC[C@H](N2Cc3cc(C(=O)N[C@H](c4ccc(F)cc4)C4CCCC4)ccc3C2=O)C(=O)N1 (racemic) [Compound 63] ... 72.2

In: Requested field: HiBiT CK1α: Dmax. Item: O=C1CCC(N2Cc3cc(C(=O)N[C@@H](c4c(F)cccc4Cl)C4CCC4)ccc3C2=O)C(=O)N1 (stereo in doubt)
Out: 73.9

In: Value lookup for HiBiT CK1α: Dmax; key = O=C1CCC(N2Cc3cc(C(=O)N[C@H](c4ncccc4F)C4CCC4)ccc3C2=O)C(=O)N1 (stereo in doubt)
Out: 63.2

In: I'd like to know its HiBiT CK1α: Dmax. The compound in question is O=C1CC[C@H](N2Cc3cc(C(=O)N[C@H](c4ccc(Cl)cc4F)C4CCC4)ccc3C2=O)C(=O)N1 (racemic)
Out: 64.4

In: For the compound shown here, O=C1CC[C@@H](N2Cc3cc(C(=O)N[C@H](c4ccc(F)cc4Cl)C4CCC4)ccc3C2=O)C(=O)N1 (racemic) , give the reported HiBiT CK1α: Dmax.
Out: 73.9

In: Return reported HiBiT CK1α: Dmax; argument: O=C1CC[C@H](N2Cc3cc(C(=O)N[C@H](c4ccc(F)c(F)c4)C4CCC4)ccc3C2=O)C(=O)N1 (racemic)
Out: 66.2
